Task for the reader: assign each of the following compounds its reported EC50.
- studyTarget: Relaxin receptor 1 (Homo sapiens, UniProt Q9HBX9)
- Sequence (Q9HBX9 whole entry): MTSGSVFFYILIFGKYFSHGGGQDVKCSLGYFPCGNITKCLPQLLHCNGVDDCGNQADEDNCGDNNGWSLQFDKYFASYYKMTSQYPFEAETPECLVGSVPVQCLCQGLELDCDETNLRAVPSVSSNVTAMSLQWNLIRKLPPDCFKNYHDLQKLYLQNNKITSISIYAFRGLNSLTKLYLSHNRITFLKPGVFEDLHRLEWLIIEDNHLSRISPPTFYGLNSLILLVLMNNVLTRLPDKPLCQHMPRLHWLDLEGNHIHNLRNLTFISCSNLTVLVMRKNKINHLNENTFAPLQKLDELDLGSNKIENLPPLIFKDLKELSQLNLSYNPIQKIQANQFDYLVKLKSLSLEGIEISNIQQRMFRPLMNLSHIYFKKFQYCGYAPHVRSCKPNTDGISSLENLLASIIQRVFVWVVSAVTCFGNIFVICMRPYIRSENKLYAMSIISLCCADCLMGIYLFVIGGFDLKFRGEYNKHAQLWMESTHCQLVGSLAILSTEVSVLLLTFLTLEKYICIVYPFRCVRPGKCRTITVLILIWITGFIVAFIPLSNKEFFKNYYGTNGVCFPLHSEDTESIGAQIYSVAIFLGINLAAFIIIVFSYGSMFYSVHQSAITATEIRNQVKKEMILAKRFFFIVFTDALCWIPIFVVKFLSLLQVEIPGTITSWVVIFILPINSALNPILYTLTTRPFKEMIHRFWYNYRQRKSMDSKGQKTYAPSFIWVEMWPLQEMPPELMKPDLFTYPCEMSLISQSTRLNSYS
- procedureText: Agonist activity at human RXFP1 stably expressed in HEK293 cells assessed as intracellular cAMP accumulation incubated for 30 mins by HTRF assay
Answers are plain numbers, in nM.

Known EC50 results, listed for orientation:
1) CNC(=O)OC(C(=O)O)c1ccc(F)c(-c2ccc(OC)c(C(=O)N[C@H]3[C@@H](C(=O)Nc4ccc(F)c(C(F)(F)F)c4)[C@H]4CC[C@@H]3/C4=C\C3CC3)c2)c1 (stereo in doubt; 40) ... 6
2) COc1cc(F)c(F)cc1C(=O)N[C@H]1[C@@H](C(=O)Nc2ccc(F)c(C(F)(F)F)c2)[C@@H]2CC[C@@H]1C2C(C)C (single isomer, unassigned; isomer 2) ... 14000

Next up:
EC50 lookup needed for `COc1ccc(-c2cc(C(=O)O)ccc2F)cc1C(=O)N[C@H]1[C@@H](C(=O)Nc2ccc(F)c(C(F)(F)F)c2)[C@H]2CC[C@@H]1/C2=C\c1ccccc1` , thanks.
16
